For each record, write down the corresponding GI50.
Tested on: LXFL 529
protocol-text: NCI tumour cell line growth inhibition, 48 h
The source made the active and inactive calls. No stated cut-off is given here; in the data, active = GI50 up to about 1.1 µM and inactive = higher.

Query :: Provide one value: measured GI50 of O=C(O)\C=C/C=C/C=C/C=C/C(=O)O
Result :: > 100 µM (inactive)

Query :: Provide one value: measured GI50 of COC(=O)N/N=C(\C)c1c(O)cc(C)oc1=O
Result :: 10.8 µM (inactive)

Query :: Provide one value: measured GI50 of COC(=O)c1cccc(C(=O)OC)c1
Result :: > 100 µM (inactive)

* * *

Tested on: SK-MEL-5
protocol-text: NCI tumour cell line growth inhibition, 48 h
Active and inactive are the calls of the source. No stated cut-off is given here; in the data, active = GI50 up to about 1.1 µM and inactive = higher.
Respond only with the outcome that fits, drawn from y (active), n (inactive)

Query :: What outcome does the record of this test show for c1ccc2oc(-c3ccc(-c4nc5ccccc5o4)c4c3CC4)nc2c1 ?
Result :: n

Query :: What outcome does the record of this test show for O=C1c2ccccc2C(O)(O)C1(O)C1(O)C(=O)c2ccccc2C1(O)O (stereo unspecified) ?
Result :: n

Query :: What outcome does the record of this test show for Cc1ccc([N+](=O)[O-])cc1S(=O)(=O)Nc1ccc(C2=NNC(c3cccs3)C2)cc1 (stereo unspecified) ?
Result :: n

Query :: What outcome does the record of this test show for CCCCCCCC(CC(=O)NC(CO)C(=O)NC(CO)CC(C)C)OC(=O)CC(CCCCCCC)OC(=O)CC(CCCCCCC)OC1OC(C)C(O)C(OC2OC(C)C(O)C(O)C2OC(C)=O)C1O (stereo unspecified) ?
Result :: n

Query :: What outcome does the record of this test show for CC(C)(Oc1ccc(C(=O)c2ccc(Cl)cc2)cc1Cl)C(=O)N1CCN(CCO)CC1 ?
Result :: n

Query :: What outcome does the record of this test show for CC(C)(C)NC(NC(C)(C)C)=C(C(Cl)=C(Cl)Cl)[N+](=O)[O-] ?
Result :: n

Query :: What outcome does the record of this test show for N#CC(=N)c1ncn(-c2ccccc2N)c1N ?
Result :: n

Query :: What outcome does the record of this test show for O=C(Nc1c(O)[nH]c(=S)[nH]c1=O)c1ccccc1F ?
Result :: n

Query :: What outcome does the record of this test show for CCOC(=O)C(SCCO)C(C(=O)OCC)n1cc(C)c(=O)[nH]c1=O (stereo unspecified) ?
Result :: n

Query :: What outcome does the record of this test show for Clc1nc(-c2ccccc2)nc(Cl)c1Cl ?
Result :: n

Query :: What outcome does the record of this test show for CCOC(=O)c1nc2cc(C(F)(F)F)ccc2nc1Oc1ccc(F)cc1 ?
Result :: n

Query :: What outcome does the record of this test show for COC(=O)[C@@H](C)[C@H]1CC[C@@](C)(CCC2=C(C)CC3C=C(C)CCC3C2(C)C)OO1 (stereo partly specified) ?
Result :: n

Query :: What outcome does the record of this test show for CC[C@H](C)[C@H]1NC(=O)[C@@H](NC(=O)[C@@H](CC(C)C)N(C)CC2CCCN2C(=O)C(C)=O)[C@@H](C)OC(=O)[C@H](Cc2ccc(OC)cc2)N(C)C(=O)C2CCCN2C(=O)[C@H](CC(C)C)NC(=O)[C@@H](C)C(=O)[C@H](C(C)C)OC(=O)C[C@@H]1O (stereo partly specified) ?
Result :: y

Query :: What outcome does the record of this test show for O=C(/C=C/c1ccc(O)cc1)c1ccc2c(c1)OCO2 ?
Result :: n

Query :: What outcome does the record of this test show for Cc1ccnc(NC(=S)Nc2ccc([N+](=O)[O-])cc2)c1 ?
Result :: n

Query :: What outcome does the record of this test show for Cc1cc(C)c2[s+]snc2c1 ?
Result :: n
